# method notes: Clearance in C57BL/6 mouse at 1 mg/kg, iv after 1 to 24 hrs by LC-MS/MS method
# Type: ADME, organism-based
# protocol conditions: in vivo
readout: clearance (mL/min/kg)

molecule	readout	unit tag	readout value
Cc1c(CN2CCOCC2)cc(-c2ccc(C(C)C)cc2)n1C1CCCOC1 (stereo unspecified)	clearance	mL/min/kg	125

* * *

# System: Mycobacterium tuberculosis
# method notes: microbe, parasite or virus in culture
# protocol conditions: H37Rv, THP-1, 96 h
# Description: Antitubercular activity against Mycobacterium tuberculosis H37Rv infected in human THP1 macrophages incubated for 4 days by luciferase reporter gene assay
pIC50: −log10 of the molar value.

query smiles	assay target	pIC50
Cc1cc(CN2CCOCC2)c(C)n1-c1ccc(F)cc1	Mycobacterium tuberculosis	< 5.00
Cc1c(CN2CCOCC2)cc(C2CCCCC2)n1-c1ccc(F)cc1	Mycobacterium tuberculosis	< 5.00
Cc1c(CN2CCOCC2)cc(-c2ccc(C(C)C)cc2)n1C1CCN(C)CC1	Mycobacterium tuberculosis	< 5.00
